Assay: Conversion of Hipp-Glu by purified HCPB mutants, 30 minutes, HPLC (Example 17)
Format: biochemical
Settings: enzyme 25 μg/ml; 0.5 mM substrate; 30 minutes at 37° C.
Known Hipp-Glu (% conversion) of a selection of molecules
Use % as the unit, but write only the number.

MOLECULE	Hipp-Glu (% conversion) (%)
[G251K, D253R]: HCPB mutant with G251K and D253R (protein, UniProt P15086 111-417, looked up, variant G251K D253R) Carboxypeptidase B: ATGHSYEKYNKWETIEAWTQQVATENPALISRSVIGTTFEGRAIYLLKVGKAGQNKPAIFMDCGFHAREWISPAFCQWFVREAVRTYGREIQVTELLDKLDFYVLPVLNIDGYIYTWTKSRFWRKTRSTHTGSSCIGTDPNRNFDAGWCEIGASRNPCDETYCGPAAESEKETKALADFIRNKLSSIKAYLTIHSYSQMMIYPYSYAYKLGENNAELNALAKATVKELASLHGTKYTYGPGATTIYPAAGKSRDWAYDQGIRYSFTFELRDTGRYGFLLPESQIRATCEETFLAIKYVASYVLEHLY	5.5

Can you share its Hipp-Glu (% conversion)? I mean this molecule: [G251T,D253R]HCPB: HCPB mutant with G251T and D253R, (His)6-c-myc tag (protein, UniProt P15086 111-417, looked up, variant G251T D253R, (His)6-c-myc tag) Carboxypeptidase B: ATGHSYEKYNKWETIEAWTQQVATENPALISRSVIGTTFEGRAIYLLKVGKAGQNKPAIFMDCGFHAREWISPAFCQWFVREAVRTYGREIQVTELLDKLDFYVLPVLNIDGYIYTWTKSRFWRKTRSTHTGSSCIGTDPNRNFDAGWCEIGASRNPCDETYCGPAAESEKETKALADFIRNKLSSIKAYLTIHSYSQMMIYPYSYAYKLGENNAELNALAKATVKELASLHGTKYTYGPGATTIYPAAGTSRDWAYDQGIRYSFTFELRDTGRYGFLLPESQIRATCEETFLAIKYVASYVLEHLY
96

All values here come from patent US6436691B1.
